# test_target: μ-opioid receptor (Homo sapiens (Human), UniProt P35372)
# procedure_details: μ-opioid receptor [35S]GTPγS functional assay (HEK-293 cells)
# Format: biochemical
# measurement_context: HEK-293 cells; relative to DAMGO
Could you please mark class 1 for values of Emax below 30% and class 0 for values at or above it?

[[record]]
structure_notation = "N[C@]12CC[C@@]3(OC1)[C@H]1Cc4ccc(O)cc4[C@@]3(CCN1CC1CC1)C2"
discrete_label = "class 1"

[[record]]
structure_notation = "COc1ccc2c(c1)[C@]13CCN(CC4CC4)[C@H](C2)[C@]12CC[C@@](N(C)C)(CO2)C3"
discrete_label = "class 1"

[[record]]
structure_notation = "COc1ccc2c(c1)[C@]13CCN(CC4CC4)[C@H](C2)[C@]12CC[C@@](NC(=O)C1CC1)(CO2)C3"
discrete_label = "class 1"

[[record]]
structure_notation = "COc1ccc2c(c1)[C@]13CCN(CC4CC4)[C@H](C2)[C@]12CC[C@@](NCc1ccccc1)(CO2)C3"
discrete_label = "class 0"

[[record]]
structure_notation = "COc1ccc2c(c1)[C@]13CCN(CC4CC4)[C@H](C2)[C@]12CC[C@@](NCC1CCCCC1)(CO2)C3"
discrete_label = "class 0"

[[record]]
structure_notation = "COc1ccc2c(c1)[C@]13CCN(CC4CC4)[C@H](C2)[C@]12CC[C@@](N(Cc1ccccc1)Cc1ccccc1)(CO2)C3"
discrete_label = "class 1"

[[record]]
structure_notation = "COc1ccc2c(c1)[C@]13CCN(CC4CC4)[C@H](C2)[C@]12CC[C@@](N1CCCC1)(CO2)C3"
discrete_label = "class 1"

[[record]]
structure_notation = "COc1ccc2c(c1)[C@]13CCN(CC4CC4)[C@H](C2)[C@]12CC[C@@](NC(=O)c1ccc(Cl)cc1)(CO2)C3"
discrete_label = "class 1"

[[record]]
structure_notation = "COc1ccc2c(c1)[C@]13CCN(CC4CC4)[C@H](C2)[C@]12CC[C@@](Nc1ccccc1)(CO2)C3"
discrete_label = "class 1"

[[record]]
structure_notation = "COc1ccc2c(c1)[C@]13CCN(CC4CC4)[C@H](C2)[C@]12CC[C@](N)(C3)C(=O)O2"
discrete_label = "class 0"

[[record]]
structure_notation = "COc1ccc2c(c1)[C@]13CCN(CC4CC4)[C@H](C2)[C@]12CC[C@@](Nc1ccc(C(C)(C)C)cc1)(CO2)C3"
discrete_label = "class 1"

[[record]]
structure_notation = "O=C(N[C@]12CC[C@@]3(OC1)[C@H]1Cc4ccc(O)cc4[C@@]3(CCN1CC1CC1)C2)c1ccccc1"
discrete_label = "class 0"

[[record]]
structure_notation = "CN[C@]12CC[C@@]3(OC1)[C@H]1Cc4ccc(O)cc4[C@@]3(CCN1CC1CC1)C2"
discrete_label = "class 1"

[[record]]
structure_notation = "COc1ccc2c(c1)[C@]13CCN(CC4CC4)[C@H](C2)[C@]12CC[C@@](NS(=O)(=O)c1ccc(Cl)cc1)(CO2)C3"
discrete_label = "class 1"

[[record]]
structure_notation = "CN1CC[C@]23C[C@@]4(N)CC[C@@]2(OC4)[C@H]1Cc1ccc(O)cc13"
discrete_label = "class 0"

[[record]]
structure_notation = "COc1ccc2c(c1)[C@]13CCN(CC4CC4)[C@H](C2)[C@]12CC[C@](O)(C3)C(=O)O2"
discrete_label = "class 1"

[[record]]
structure_notation = "COc1ccc2c(c1)[C@]13CCN(CC4CC4)[C@H](C2)[C@]12CC[C@@](N)(CO2)C3"
discrete_label = "class 1"

[[record]]
structure_notation = "COc1ccc2c(c1)[C@]13CCN(CC4CC4)[C@H](C2)[C@]12CC[C@@](N1CCOCC1)(CO2)C3"
discrete_label = "class 1"

[[record]]
structure_notation = "COc1ccc2c(c1)[C@]13CCN(CC4CC4)[C@H](C2)[C@]12CC[C@@](NC(=O)CC(F)(F)F)(CO2)C3"
discrete_label = "class 0"

[[record]]
structure_notation = "O=C1O[C@@]23CC[C@]1(O)C[C@@]21CCN(CC2CC2)[C@@H]3Cc2ccc(O)cc21"
discrete_label = "class 1"

[[record]]
structure_notation = "CC(C)(C)C(=O)N[C@]12CC[C@@]3(OC1)[C@H]1Cc4ccc(O)cc4[C@@]3(CCN1CC1CC1)C2"
discrete_label = "class 1"

[[record]]
structure_notation = "COc1ccc2c(c1)[C@]13CCN(CC4CC4)[C@H](C2)[C@]12CC[C@@](NC(=O)c1ccccc1)(CO2)C3"
discrete_label = "class 0"

[[record]]
structure_notation = "COc1ccc2c(c1)[C@]13CCN(CC4CC4)[C@H](C2)[C@]12CC[C@@](NC(=O)C(C)(C)C)(CO2)C3"
discrete_label = "class 0"

